- EXPERIMENTAL_TARGET: hENT1 (Homo sapiens, UniProt Q99808)
- Construct: performed on erythrocyte cell membranes endogenously expressing the transporter; tissue Sanquin Bloedvoorziening, Amsterdam, The Netherlands; host or cells: erythrocyte membranes (endogenous expression)
- Sequence (Q99808 1-456): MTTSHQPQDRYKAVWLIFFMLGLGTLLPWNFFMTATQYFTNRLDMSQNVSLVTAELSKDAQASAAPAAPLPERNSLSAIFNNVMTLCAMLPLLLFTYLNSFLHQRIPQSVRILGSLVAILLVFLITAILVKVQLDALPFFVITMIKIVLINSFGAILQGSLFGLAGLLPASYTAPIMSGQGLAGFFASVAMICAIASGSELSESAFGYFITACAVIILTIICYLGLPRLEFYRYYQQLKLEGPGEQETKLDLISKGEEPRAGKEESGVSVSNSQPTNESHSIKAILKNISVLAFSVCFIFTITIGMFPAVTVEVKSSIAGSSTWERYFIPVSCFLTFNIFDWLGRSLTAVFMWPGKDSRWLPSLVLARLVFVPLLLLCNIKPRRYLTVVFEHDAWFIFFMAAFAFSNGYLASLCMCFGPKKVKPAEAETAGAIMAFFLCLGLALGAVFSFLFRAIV
- PROCEDURE_SUMMARY: time-dependent hENT1 radioligand binding assay ([3H]NBTI displacement with or without 4 h preincubation)
- ASSAY_SETUP: 1 µM inhibitor; 4 h preincubation at 10 °C; mean (individual values) of two experiments
READOUT_KIND: % displacement at 1 μM at 4 h preincubation

Below: 6 molecules and their reported % displacement at 1 μM at 4 h preincubation.
- MOLECULE: "C=CC(=O)NCc1ccc(C(=O)OCCCN2CCN(CCCOC(=O)c3cc(OC)c(OC)c(OC)c3)CC2)cc1 [Compound 10e]"
  EXPERIMENTAL_TARGET: "hENT1 (Homo sapiens, UniProt Q99808)"
  RESULT: "29 (20, 37) %"
- MOLECULE: "COc1cc(C(=O)OCCCN2CCN(CCOC(=O)c3cccc(S(=O)(=O)F)c3)CC2)cc(OC)c1OC"
  EXPERIMENTAL_TARGET: "hENT1 (Homo sapiens, UniProt Q99808)"
  RESULT: "3 (-9, 13) %"
- MOLECULE: "C=CC(=O)NCCc1ccc(C(=O)OCCCN2CCN(CCCOC(=O)c3cc(OC)c(OC)c(OC)c3)CC2)cc1 [Compound 10f]"
  EXPERIMENTAL_TARGET: "hENT1 (Homo sapiens, UniProt Q99808)"
  RESULT: "7 (0, 13) %"
- MOLECULE: "COc1cc(C(=O)OCCCN2CCN(CCCOC(=O)c3cccc(S(=O)(=O)F)c3)CC2)cc(OC)c1OC"
  EXPERIMENTAL_TARGET: "hENT1 (Homo sapiens, UniProt Q99808)"
  RESULT: "33 (32, 34) %"
- MOLECULE: "C=CC(=O)Nc1ccc(C(=O)OCCCCN2CCN(CCCOC(=O)c3cc(OC)c(OC)c(OC)c3)CC2)cc1 [Compound 10c]"
  EXPERIMENTAL_TARGET: "hENT1 (Homo sapiens, UniProt Q99808)"
  RESULT: "41 (30, 51) %"
- MOLECULE: "COc1cc(C(=O)OCCCN2CCN(CCCCOC(=O)c3ccc(S(=O)(=O)F)cc3)CC2)cc(OC)c1OC"
  EXPERIMENTAL_TARGET: "hENT1 (Homo sapiens, UniProt Q99808)"
  RESULT: "54 (53, 56) %"

Continue with the molecule presented below.
Request: Look up % displacement at 1 μM at 4 h preincubation of C=CC(=O)Nc1cccc(C(=O)OCCCN2CCN(CCCOC(=O)c3cc(OC)c(OC)c(OC)c3)CC2)c1 [Compound 10a] and report it.
Result: 24 (18, 30) %
